Would you mind telling me the reported LC-50 of each entry?
system: OVCAR-3; assay: Inhibition of human cancer cell line OVCAR-3 (Ovarian); format: cell-based

Recorded results for 3 substances are shown here.
{"columns": ["Substance", "LC-50"],
 "data": [
  ["Dov-Val-Dil-Dap-Pro-OCH3 [pentapeptide 3c]", "> 1 µg/mL"],
  ["Dov-Val-Dil-Dap-Phe-NH2 [pentapeptide 3b]", "0.066 µg/mL"],
  ["Dov-Val-Dil-Dap-Met-OCH3 [pentapeptide 3e]", "> 1 µg/mL"]
]}

// for each substance below, give its LC-50
1. Dov-Val-Dil-Dap-Ile-OCH3 [pentapeptide 3d]
2. Dov-Val-Dil-Dap-Phe-OCH3 [pentapeptide 3a]

OUTPUT:
0.043 µg/mL
> 1 µg/mL
